The values you see were collected from PubChem BioAssay AID1645866.

# TARGET: Ubiquitin carboxyl-terminal hydrolase 28 (Homo sapiens) (UniProt Q96RU2)
# Sequence (Q96RU2 whole entry, looked up): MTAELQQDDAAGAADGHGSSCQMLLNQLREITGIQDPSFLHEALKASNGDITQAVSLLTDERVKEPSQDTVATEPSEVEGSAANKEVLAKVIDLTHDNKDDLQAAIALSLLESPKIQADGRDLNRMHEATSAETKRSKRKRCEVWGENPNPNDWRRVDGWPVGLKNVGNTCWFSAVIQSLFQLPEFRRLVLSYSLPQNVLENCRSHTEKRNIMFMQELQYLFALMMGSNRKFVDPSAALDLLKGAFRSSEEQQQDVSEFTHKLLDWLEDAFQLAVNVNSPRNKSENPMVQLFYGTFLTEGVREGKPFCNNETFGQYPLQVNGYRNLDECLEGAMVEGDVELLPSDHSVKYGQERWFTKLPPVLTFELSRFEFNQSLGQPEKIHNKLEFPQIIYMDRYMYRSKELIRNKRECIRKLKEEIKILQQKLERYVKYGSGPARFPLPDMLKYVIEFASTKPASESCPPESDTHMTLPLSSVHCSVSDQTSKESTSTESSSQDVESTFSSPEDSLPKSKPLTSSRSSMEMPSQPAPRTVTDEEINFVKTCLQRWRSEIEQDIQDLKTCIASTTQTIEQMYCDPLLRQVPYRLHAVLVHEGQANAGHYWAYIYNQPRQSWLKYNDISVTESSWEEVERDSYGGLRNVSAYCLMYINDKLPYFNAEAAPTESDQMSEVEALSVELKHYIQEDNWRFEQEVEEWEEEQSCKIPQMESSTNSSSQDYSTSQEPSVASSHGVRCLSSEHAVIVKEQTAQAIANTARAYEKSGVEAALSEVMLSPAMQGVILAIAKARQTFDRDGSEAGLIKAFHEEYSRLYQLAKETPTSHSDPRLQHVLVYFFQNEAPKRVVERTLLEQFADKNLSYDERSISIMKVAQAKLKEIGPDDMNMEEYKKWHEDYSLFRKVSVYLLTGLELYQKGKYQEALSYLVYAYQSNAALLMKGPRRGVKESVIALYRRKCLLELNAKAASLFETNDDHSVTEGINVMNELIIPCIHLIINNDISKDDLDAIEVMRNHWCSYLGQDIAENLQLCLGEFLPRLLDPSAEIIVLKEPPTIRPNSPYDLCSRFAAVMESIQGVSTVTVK
# PROCEDURE_DETAILS: Concentration-response biochemical assay confirming initial hits as inhibitors of ubiquitin-specific protease 28 (AID 1645866)
# EXPERIMENTAL_PARAMETERS: purified USP28, ubiquitin-rhodamine fluorescence, 30 min
Active and inactive are the calls of the source.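 How the source made its calls: active means in confirmatory dose-response testing, peak deubiquitinase inhibition of 30% or more; inactive means the rest.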
Labels: yes (active), no (inactive)

[
  {
    "COMPOUND": "CC1CCN(c2cc(-n3cnc(C(=O)N4CCCCC4)c3)ncn2)CC1",
    "TARGET": "Ubiquitin carboxyl-terminal hydrolase 28 (Homo sapiens) (UniProt Q96RU2)",
    "CLASS_ASSIGNMENT": "yes"
  },
  {
    "COMPOUND": "CS(=O)(=O)c1ccc(NC(=O)C2CN(c3nc4c(F)cccc4s3)C2)cc1",
    "TARGET": "Ubiquitin carboxyl-terminal hydrolase 28 (Homo sapiens) (UniProt Q96RU2)",
    "CLASS_ASSIGNMENT": "yes"
  },
  {
    "COMPOUND": "Cc1c(C(=O)NCc2cccc(Br)c2)oc2c1-c1[nH]ncc1CC2",
    "TARGET": "Ubiquitin carboxyl-terminal hydrolase 28 (Homo sapiens) (UniProt Q96RU2)",
    "CLASS_ASSIGNMENT": "yes"
  },
  {
    "COMPOUND": "CCOc1ccc(NC(=O)CSc2nc3n[nH]c(C)c3c(=N)n2-c2ccc(OC)cc2)cc1",
    "TARGET": "Ubiquitin carboxyl-terminal hydrolase 28 (Homo sapiens) (UniProt Q96RU2)",
    "CLASS_ASSIGNMENT": "yes"
  },
  {
    "COMPOUND": "COc1cccc2cc(C(=O)Nc3ccc4c(c3)OCCO4)oc12",
    "TARGET": "Ubiquitin carboxyl-terminal hydrolase 28 (Homo sapiens) (UniProt Q96RU2)",
    "CLASS_ASSIGNMENT": "yes"
  },
  {
    "COMPOUND": "Cc1ccc(NC(=O)CCC(=O)Nc2ccc3nc(N4CCCCC4)cc(C)c3c2)c(Br)c1",
    "TARGET": "Ubiquitin carboxyl-terminal hydrolase 28 (Homo sapiens) (UniProt Q96RU2)",
    "CLASS_ASSIGNMENT": "yes"
  },
  {
    "COMPOUND": "Cc1nn(-c2ccccc2)c(C)c1C(=O)OCC(=O)Nc1cccc(C#N)c1",
    "TARGET": "Ubiquitin carboxyl-terminal hydrolase 28 (Homo sapiens) (UniProt Q96RU2)",
    "CLASS_ASSIGNMENT": "yes"
  },
  {
    "COMPOUND": "Cc1ccc([N+](=O)[O-])cc1S(=O)(=O)Nc1cc2sc(=O)oc2c2ccccc12",
    "TARGET": "Ubiquitin carboxyl-terminal hydrolase 28 (Homo sapiens) (UniProt Q96RU2)",
    "CLASS_ASSIGNMENT": "yes"
  },
  {
    "COMPOUND": "O=C(OCc1ccc(Br)cc1)c1ccc2ccccc2n1",
    "TARGET": "Ubiquitin carboxyl-terminal hydrolase 28 (Homo sapiens) (UniProt Q96RU2)",
    "CLASS_ASSIGNMENT": "yes"
  },
  {
    "COMPOUND": "COc1ccc(OC)c(NC(=O)C2Oc3ccccc3NC2=O)c1 (centres undefined)",
    "TARGET": "Ubiquitin carboxyl-terminal hydrolase 28 (Homo sapiens) (UniProt Q96RU2)",
    "CLASS_ASSIGNMENT": "yes"
  },
  {
    "COMPOUND": "O=C(Cn1nc2c3c4c(sc3ncn2c1=O)CCCCC4)Nc1ccc(Cl)cc1F",
    "TARGET": "Ubiquitin carboxyl-terminal hydrolase 28 (Homo sapiens) (UniProt Q96RU2)",
    "CLASS_ASSIGNMENT": "yes"
  },
  {
    "COMPOUND": "NC(=O)Cn1c(=O)n(Cc2ccc(C(=O)NC3CCCC3)cc2)c(=O)c2ccccc21",
    "TARGET": "Ubiquitin carboxyl-terminal hydrolase 28 (Homo sapiens) (UniProt Q96RU2)",
    "CLASS_ASSIGNMENT": "no"
  },
  {
    "COMPOUND": "Cc1ccc(CNC(=O)c2cccc(N3C(=O)N4CCc5c([nH]c6ccccc56)[C@@]4(C)C3=O)c2)cc1",
    "TARGET": "Ubiquitin carboxyl-terminal hydrolase 28 (Homo sapiens) (UniProt Q96RU2)",
    "CLASS_ASSIGNMENT": "yes"
  },
  {
    "COMPOUND": "O=C(O)C1CCN(Cc2c(-c3ccco3)nc3ccc(Cl)cn23)CC1",
    "TARGET": "Ubiquitin carboxyl-terminal hydrolase 28 (Homo sapiens) (UniProt Q96RU2)",
    "CLASS_ASSIGNMENT": "no"
  },
  {
    "COMPOUND": "O=C(NCc1ccc(-c2nc3cnccc3o2)cc1)c1ccccc1Br",
    "TARGET": "Ubiquitin carboxyl-terminal hydrolase 28 (Homo sapiens) (UniProt Q96RU2)",
    "CLASS_ASSIGNMENT": "no"
  },
  {
    "COMPOUND": "O=C1CC(c2cc3c(cc2Br)OCO3)c2cc3c(cc2N1)OCCO3 (centres undefined)",
    "TARGET": "Ubiquitin carboxyl-terminal hydrolase 28 (Homo sapiens) (UniProt Q96RU2)",
    "CLASS_ASSIGNMENT": "yes"
  },
  {
    "COMPOUND": "COc1cc(OC)cc(-n2c(=O)c3sccc3n(CC(=O)c3ccc(F)cc3)c2=O)c1",
    "TARGET": "Ubiquitin carboxyl-terminal hydrolase 28 (Homo sapiens) (UniProt Q96RU2)",
    "CLASS_ASSIGNMENT": "yes"
  },
  {
    "COMPOUND": "CCN(CC)c1cc(C)c2cc(NC(=O)c3ccncc3)ccc2n1",
    "TARGET": "Ubiquitin carboxyl-terminal hydrolase 28 (Homo sapiens) (UniProt Q96RU2)",
    "CLASS_ASSIGNMENT": "yes"
  },
  {
    "COMPOUND": "CCc1ccccc1NC(=O)c1cc(-c2ccccn2)n[nH]1",
    "TARGET": "Ubiquitin carboxyl-terminal hydrolase 28 (Homo sapiens) (UniProt Q96RU2)",
    "CLASS_ASSIGNMENT": "yes"
  },
  {
    "COMPOUND": "Cc1ccc(NC(=O)c2ccc(N3CCOCC3)nn2)cc1F",
    "TARGET": "Ubiquitin carboxyl-terminal hydrolase 28 (Homo sapiens) (UniProt Q96RU2)",
    "CLASS_ASSIGNMENT": "yes"
  },
  {
    "COMPOUND": "c1cncc(-c2nc(Nc3ccc4c(c3)OCCO4)c3ccccc3n2)c1",
    "TARGET": "Ubiquitin carboxyl-terminal hydrolase 28 (Homo sapiens) (UniProt Q96RU2)",
    "CLASS_ASSIGNMENT": "yes"
  },
  {
    "COMPOUND": "O=C(NCc1ccc(F)cc1)C1CCN(c2cnc(N3CCCCC3)nc2)CC1",
    "TARGET": "Ubiquitin carboxyl-terminal hydrolase 28 (Homo sapiens) (UniProt Q96RU2)",
    "CLASS_ASSIGNMENT": "yes"
  },
  {
    "COMPOUND": "Cc1ccc(C(=O)NCc2ccc(C(=O)Nc3cccc(C)c3)o2)cc1",
    "TARGET": "Ubiquitin carboxyl-terminal hydrolase 28 (Homo sapiens) (UniProt Q96RU2)",
    "CLASS_ASSIGNMENT": "yes"
  },
  {
    "COMPOUND": "Fc1ccc(CSc2nnc(-c3ccccn3)n2Cc2ccco2)cc1",
    "TARGET": "Ubiquitin carboxyl-terminal hydrolase 28 (Homo sapiens) (UniProt Q96RU2)",
    "CLASS_ASSIGNMENT": "yes"
  },
  {
    "COMPOUND": "CC1CCc2c(sc3ncnc(NC4CCN(CC(N)=O)CC4)c23)C1 (centres undefined)",
    "TARGET": "Ubiquitin carboxyl-terminal hydrolase 28 (Homo sapiens) (UniProt Q96RU2)",
    "CLASS_ASSIGNMENT": "no"
  },
  {
    "COMPOUND": "Cn1ccnc1CN1C[C@H]2CCN(c3ncccn3)C[C@H]2C1",
    "TARGET": "Ubiquitin carboxyl-terminal hydrolase 28 (Homo sapiens) (UniProt Q96RU2)",
    "CLASS_ASSIGNMENT": "no"
  },
  {
    "COMPOUND": "CC1=C[C@@H](C)CC[C@H]2O[C@@H](C3=C(O)C(=O)C(C)=C4O[C@](O)(C=C43)[C@@H](C)C[C@H](C)C1)[C@H](C)[C@@H](O)[C@H]2C",
    "TARGET": "Ubiquitin carboxyl-terminal hydrolase 28 (Homo sapiens) (UniProt Q96RU2)",
    "CLASS_ASSIGNMENT": "yes"
  },
  {
    "COMPOUND": "CCOc1ccc(-n2c(SCC(=O)N3CC(=O)Nc4ccccc43)nnc2-c2ccc(OC)cc2)cc1",
    "TARGET": "Ubiquitin carboxyl-terminal hydrolase 28 (Homo sapiens) (UniProt Q96RU2)",
    "CLASS_ASSIGNMENT": "yes"
  },
  {
    "COMPOUND": "N#Cc1c(-c2cccs2)cc(-c2cccs2)[nH]c1=O",
    "TARGET": "Ubiquitin carboxyl-terminal hydrolase 28 (Homo sapiens) (UniProt Q96RU2)",
    "CLASS_ASSIGNMENT": "no"
  }
]
